- Tested System: human CD74, naturally expressed on cells (Raji, Daudi, M4A4, NCI-H747 cells; human tonsil tissue) (human) (UniProt P04233)
- Assay Details: FACS on Daudi cells; mean of three experiments
A collection of binders and their measured EC50
Write the number in µg/mL without appending the unit.

Briefly, EC50 measured for HuMab-CD74-006-vcMMAE (antibody, IgG1, V domains shown, drug-linker vcMMAE alkylated to the cysteines of the reduced antibody (DAR 4.0), Antibody-drug conjugate of HuMab-CD74-006 (IgG1,kappa); also called vcMMAE-conjugated HuMab-CD74-006) VH: QVQLVESGGGVVQPGRSLRLSCAASGFTFSSYAMHWVRQAPGKGLEWVAVISYDGSIKYYADSVKGRFTISRDNSKNTLYLQMNSLRVEDTAVFYCARGREITSQNIVILLDYWGQGTLVTVTS VL: DIQMTQSPSSLSASVGDRVTITCRASQGISSWLAWYQQKPEKAPKSLIYAASSLQSGVPSRFSGSGSGTDFTLTISSLQPEDFATYYCQQYNSYPLTFGGGTKVEIK : 0.03

Notebook: HuMab-CD74-005 (antibody, human IgG1, V domains shown, Human IgG1,kappa; produced transiently in HEK-293F cells; also called antibody 005) VH: QVQLVESGGGVVQPGRSLRLSCAASGFTFSSYAMHWVRQAPGKGLEWVAVISYDGSNKYYADSVKGRFTISRDNSKNTLYLQMNSLRAEDTAVYYCASGRYYGSGSYSSYFDYWGQGTLVTVSS VL: DIQMTQSPSSLSASVGDRVTITCRASQGISSWLAWFQQKPEKAPKSLIYAASSLQSGVPSRFSGSGSGTDFTLTISSLQPEDFATYYCQQYNSYPLTFGGGTKVEIK , EC50 read as 1.27

The measured EC50 associated with HuMab-CD74-006-mcMMAF (antibody, IgG1, V domains shown, drug-linker mcMMAF alkylated to the cysteines of the reduced antibody (DAR 3.7-4.1), Antibody-drug conjugate of HuMab-CD74-006 (IgG1,kappa)) VH: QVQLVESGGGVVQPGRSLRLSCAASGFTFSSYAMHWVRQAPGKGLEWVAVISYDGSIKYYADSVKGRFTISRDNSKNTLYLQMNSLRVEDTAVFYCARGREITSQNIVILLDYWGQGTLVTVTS VL: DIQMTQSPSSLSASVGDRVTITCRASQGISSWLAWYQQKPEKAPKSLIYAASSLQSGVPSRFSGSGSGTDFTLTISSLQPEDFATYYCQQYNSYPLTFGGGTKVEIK reads 0.03

What the record says about HuMab-CD74-006 (antibody, human IgG1, V domains shown, Human IgG1,kappa antibody produced transiently in HEK-293F cells; also called antibody 006) VH: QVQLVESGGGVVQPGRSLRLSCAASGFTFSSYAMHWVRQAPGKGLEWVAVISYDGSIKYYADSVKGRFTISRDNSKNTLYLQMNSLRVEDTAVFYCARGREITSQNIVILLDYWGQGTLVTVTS VL: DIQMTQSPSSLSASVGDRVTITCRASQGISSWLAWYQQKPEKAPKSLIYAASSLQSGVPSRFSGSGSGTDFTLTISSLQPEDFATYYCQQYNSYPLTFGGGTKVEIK : EC50 is 0.04

The reported numbers originate from patent US20170173151A1.
